Assay system: recombinant human MMP-13 (Homo sapiens, UniProt P45452)
Construct: made in house; host or cells: baculovirus (pBlueBac4 / Bac-N-Blue; virus made in Sf9), expressed in High-Five insect cells; culture supernatant used
Run description: Assay of MMP-13 inhibiting activity (fluorogenic peptide substrate)
Assay type: biochemical
Protocol conditions: Table 6; 37° C., 2 hours
Measured property: IC50

Problem: Give the reported IC50 for CC(=O)SC1CN(Cc2ccc(Oc3ccccc3)cc2)C(=O)C1C (centres unmarked) (system: recombinant human MMP-13 (Homo sapiens, UniProt P45452)).
Result: 30 nM

Problem: Give IC50 (recombinant human MMP-13 (Homo sapiens, UniProt P45452)) of the following molecule: CC1C(=O)N(Cc2ccc(Oc3ccccc3)cc2)CC1S (centres unmarked)
Result: 6 nM
